- assayed system: steroid sulfatase (Homo sapiens, UniProt P08842)
- Sequence (P08842 22-583): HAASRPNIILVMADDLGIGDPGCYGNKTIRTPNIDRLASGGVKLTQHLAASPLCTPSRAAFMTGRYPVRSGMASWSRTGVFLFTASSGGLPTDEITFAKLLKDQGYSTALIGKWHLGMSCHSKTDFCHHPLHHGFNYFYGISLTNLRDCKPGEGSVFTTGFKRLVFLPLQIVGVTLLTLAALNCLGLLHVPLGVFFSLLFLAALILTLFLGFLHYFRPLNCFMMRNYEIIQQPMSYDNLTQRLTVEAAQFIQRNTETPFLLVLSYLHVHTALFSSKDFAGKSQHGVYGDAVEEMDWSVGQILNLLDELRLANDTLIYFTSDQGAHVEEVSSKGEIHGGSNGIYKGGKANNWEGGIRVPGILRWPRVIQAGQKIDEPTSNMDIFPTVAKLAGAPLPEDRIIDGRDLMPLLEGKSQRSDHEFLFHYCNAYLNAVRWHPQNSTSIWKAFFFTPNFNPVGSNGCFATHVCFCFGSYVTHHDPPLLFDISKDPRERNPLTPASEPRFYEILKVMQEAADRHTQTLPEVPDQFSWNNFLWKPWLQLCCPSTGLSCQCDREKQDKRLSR
- assay comment: Steroid sulfatase inhibition in cell extracts (HaCaT keratinocytes or 1BR3GN fibroblasts, [3H]-DHEAS cleavage)
- Type: biochemical
- Parameters: the supernatant which contains the solubilized enzyme is removed and stored at 4°; endogenous in cells; host or cells: HaCaT keratinocytes or 1BR3GN fibroblasts (microsomal extract)
- test settings: solubilized enzyme from HaCaT or 1BR3GN cells, 50 μM DHEAS, 30 minutes at 37°; depending on the enzyme concentration used
metric name: IC50

Incoming: Hello, please tell me recorded IC50 for this one: C[C@]12CC[C@@H]3c4ccc(OS(N)(=O)=O)cc4CC[C@H]3[C@@H]1CCC2=O [Estrone-3-O-sulfamate]
Outgoing: 1 to 5 nM
